TEST DETAILS: Blood:plasma partition ratio and fraction unbound in plasma, experimental data
Assay type: in vitro ADME
CONDITION SET: plasma; read-out: fu (fraction unbound in plasma)
PARAMETER: fraction unbound

Cc1nc2cc(C(=O)N(C)C)cc(O[C@H]3CCOc4cc(F)cc(F)c43)c2[nH]1 : 0.124

---

TEST DETAILS: Blood:plasma partition ratio and fraction unbound in plasma, experimental data
Format: in vitro ADME
CONDITION SET: blood and plasma; read-out: B/P (blood:plasma partition ratio)
PARAMETER: blood plasma ratio

Cc1nc2cc(C(=O)N(C)C)cc(O[C@H]3CCOc4cc(F)cc(F)c43)c2[nH]1 : 0.868

---

TEST DETAILS: Physicochemical properties (log P, pKa), experimental data
CONDITION SET: ampholyte; read-out: pKa 1
PARAMETER: pKa

Cc1nc2cc(C(=O)N(C)C)cc(O[C@H]3CCOc4cc(F)cc(F)c43)c2[nH]1 : 5.2

---

TEST DETAILS: Phase 1 clinical PK studies of tegoprazan alone in healthy male adults (observed)
Assay type: in vivo
CONDITION SET: human, urine and plasma, single oral dose 100 mg, read-out: CLR (renal clearance) (converted)
PARAMETER: CL renal (mL/min)

Cc1nc2cc(C(=O)N(C)C)cc(O[C@H]3CCOc4cc(F)cc(F)c43)c2[nH]1 [tegoprazan] : 21.8

---

TEST DETAILS: Parallel artificial membrane permeability assay (PAMPA)
Assay type: in vitro ADME
PARAMETER: Papp (×10⁻⁶ cm/s)

Cc1nc2cc(C(=O)N(C)C)cc(O[C@H]3CCOc4cc(F)cc(F)c43)c2[nH]1 : 68.4
